experiment.description: chemical genetic growth profiling, strain panel (AID 1159580);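 also: tested at 20 µM; growth read once vehicle control cultures reached saturation at 30 °C; 1 = growth at the plate median or of vehicle wells; lower values mean less growth of the strain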
measurement.parameters: S. cerevisiae deletion strains, growth OD, locus YLR258W, strain gsy2, active compounds read low
Hit rate of the full screen: of about 5,500 compounds, about 2,000 (36%) were called active. Another 18% or so got no clear call; they are omitted. This is one part of the list.
# normalized growth values compiled below
Simply state the number, no unit and no words.

> print(dat)
                                   compound  measurement
1              O=C1c2ccccc2-c2cccc3cccc1c23          0.9
2      O=C(O)CCCN1C(=O)c2cccc3cccc(c23)C1=O         1.02
3  CSCCC(NC=O)C(=O)NC(CC(C)C)C(=O)NC(Cc1ccccc1)C(=O)O (stereo not given)         1.02
4               CN(C)c1nc(N(C)C)nc(N(C)C)n1        0.987

Now for a further compound.
Just so you know, measured normalized growth for `O=c1cc(-c2ccc(O)cc2)oc2cc(O[C@@H]3O[C@H](CO)[C@@H](O)[C@H](O)[C@H]3O[C@@H]3OC[C@](O)(CO)[C@H]3O)cc(O)c12` came out at 0.997

* * *

experiment.description: chemical genetic growth profiling, strain panel (AID 1159580)
measurement.parameters: S. cerevisiae deletion strains, growth OD, locus YLR113W, strain HOG1, active compounds read low
Among all 5,500 compounds or so, about 2,000 (36%) were called active. Not shown: some 18% with an inconclusive outcome. This is one part of the list.
parameter.measured: normalized growth
Simply state the number, no unit and no words.

> print(dat)
                                   compound  measurement
1                 Cc1ncc([N+](=O)[O-])n1CCO         1.05
2             COc1ccc2c(=O)c(CC(=O)O)coc2c1        0.992
3            O=C1c2ccccc2C(=O)c2c1ccc(O)c2O         0.56
4  Cc1cc(O)c2c(c1O)C(=O)c1c(O)cc(C)c(O)c1C2=O         1.03
5   O=C(Nc1ccc(Cl)cc1)c1csc([N+](=O)[O-])c1        0.596

Just so you know, measured normalized growth for `O=C1c2ccccc2C(=O)c2c(O)c(O)cc(O)c21` came out at 0.199

Just so you know, measured normalized growth for `Fc1ccc(C(c2ccc(F)cc2)N2CCN(C/C=C/c3ccccc3)CC2)cc1` came out at 0.963

Just so you know, measured normalized growth for CC(=O)OC1CCC23C(=O)OC45CCC(C6=CC(=O)OC6)C4(C)CCC2C5CCC3(O)C1 (configuration not stated) came out at 1.01

* * *

experiment.description: chemical genetic growth profiling, strain panel (AID 1159580)
measurement.parameters: S. cerevisiae deletion strains, growth OD, locus YMR001C, strain CDC5, active compounds read low
Screen size: about 5,500 compounds; about 2,000 (36%) were called active. Another 18% or so got no clear call; they are omitted. The list shows a part of the results.
# normalized growth values compiled below
Simply state the number, no unit and no words.

Just so you know, measured normalized growth for `N#C/C(=N/Nc1ccc(Cl)cc1)C(N)=S` came out at 0.475

Just so you know, measured normalized growth for `O=S(=O)(Nc1ccc(-n2nc(C(F)(F)F)cc2-c2cccs2)cc1)c1ccc(F)cc1` came out at 0.989

Just so you know, measured normalized growth for `CC(/C=C/c1ccccc1)=N/OC(=O)c1ccccc1Cl` came out at 0.97

Just so you know, measured normalized growth for `CSc1nc(Sc2n[nH]c(-c3ccccc3)n2)cc(Sc2n[nH]c(-c3ccccc3)n2)n1` came out at 1.01

Just so you know, measured normalized growth for `Cc1ccc(C(=O)Nc2ccc3ccccc3n2)cc1` came out at 0.966

Just so you know, measured normalized growth for `N#CC(C#N)=NNc1ccc(-n2ccc(C(F)(F)F)n2)cc1` came out at 0.883

Just so you know, measured normalized growth for `Cc1nc(C(F)(F)F)ccc1C(=O)Sc1nnc(-c2ccc(C(F)(F)F)nc2C)o1` came out at 0.953

Just so you know, measured normalized growth for `Cc1nc(C(F)(F)F)ccc1-c1nnc(SC(=O)c2ccc(Cl)cc2)o1` came out at 0.875

Just so you know, measured normalized growth for `N#C/C(=N/Nc1ccc(Cl)cc1)C(=O)C1CC1` came out at 0.855

Just so you know, measured normalized growth for C(=NC(N=Cc1ccccc1)c1ccccc1)c1ccccc1 (stereo unspecified) came out at 0.995

Just so you know, measured normalized growth for `O=C(NCc1ccc(F)c(Cl)c1)Nc1csc([N+](=O)[O-])c1` came out at 0.99

* * *

experiment.description: chemical genetic growth profiling, strain panel (AID 1159580)
measurement.parameters: S. cerevisiae deletion strains, growth OD, locus YOR001W, strain rrp6, active compounds read low
In all, about 5,500 compounds went through this assay and about 2,000 (36%) were called active. About 18% were inconclusive and are not listed. The list shows a part of the results.
parameter.measured: normalized growth
Simply state the number, no unit and no words.

> print(dat)
                                   molecule  measurement
1  C[C@]12C=CC(=O)C=C1CCC1C2CC[C@]2(C)C(=O)CCC12 (some centres undefined)         0.98
2  C[C@]12C=CC(=O)C=C1CCC1C2C(=O)C[C@@]2(C)C1CC[C@]2(O)C(=O)CO (some centres undefined)        0.976
3  CC(=O)O[C@@H]1CC2C(C)(C)[C@H](O)C[C@H](O)[C@]2(C)C2CC[C@@]3(C)C(=CC(=O)O[C@H]3c3ccoc3)[C@@]21C (some centres undefined)         1.03

Just so you know, measured normalized growth for C=C1CC2C(CCC3(C)C(=O)CCC23)C2(C)C=CC(=O)C=C12 (centres undefined) came out at 0.881

* * *

experiment.description: chemical genetic growth profiling, strain panel (AID 1159580);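 also: tested at 20 µM; growth read once vehicle control cultures reached saturation at 30 °C; 1 = growth at the plate median or of vehicle wells; lower values mean less growth of the strain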
measurement.parameters: S. cerevisiae strains, growth OD, strain wild type, active compounds read low
In all, about 5,500 compounds went through this assay and about 2,000 (36%) were called active. About 18% were inconclusive and are not listed. The list shows a part of the results.
# normalized growth values compiled below
Simply state the number, no unit and no words.

> print(dat)
                      sample.smiles  parameter.measured  measurement
1  CC(C)=CCC1=C(O)c2ccccc2C(=O)C1=O   normalized growth        0.934

Just so you know, measured normalized growth for `CN1CCN(CCCN2c3ccccc3Sc3ccc(Cl)cc32)CC1` came out at 0.0575

Just so you know, measured normalized growth for `O=c1n(CCCN2CCN(c3cccc(Cl)c3)CC2)nc2ccccn12` came out at 0.979

Just so you know, measured normalized growth for `O=C1c2ccccc2C(=O)c2c1ccc(O)c2O` came out at 0.166

Just so you know, measured normalized growth for `OCCN1CCN(CCCN2c3ccccc3Sc3ccc(Cl)cc32)CC1` came out at 1.01

Just so you know, measured normalized growth for `CCCc1cc(C(=O)Nc2ccc(N(CC)CC)cc2)nn1-c1ccccc1` came out at 0.922

* * *

experiment.description: chemical genetic growth profiling, strain panel (AID 1159580);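 also: tested at 20 µM; growth read once vehicle control cultures reached saturation at 30 °C; 1 = growth at the plate median or of vehicle wells; lower values mean less growth of the strain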
measurement.parameters: S. cerevisiae deletion strains, growth OD, locus YBR160W, strain CDC28, active compounds read low
About 2,000 (36%) of roughly 5,500 compounds were called active. Inconclusive results (about 18%) are left out. Some of the results follow.
# normalized growth values compiled below
Simply state the number, no unit and no words.

Worked cases, answers included:
> print(dat)
                              sample.smiles  measurement
1   Fc1ccc(Nc2nc(-c3ccc(F)c(F)c3)cs2)c(F)c1         0.12
2  Cc1c(NCN2C(=O)CCC2=O)cc2c(c1[N+](=O)[O-])C(C)(C)CC2(C)C        0.967
3             N#C/C(=N/Nc1ccc(Cl)cc1)C(N)=S        0.515
4  CC(C)(C)c1cc(C(=O)/C(C#N)=N\Nc2ccc(Cl)cc2)no1        0.966

Now for a further compound.
Just so you know, measured normalized growth for `N/C(=N/OC(=O)c1ccccc1Cl)c1cccc(CS(=O)(=O)c2ccc(Cl)cc2)c1` came out at 0.981

* * *

experiment.description: chemical genetic growth profiling, strain panel (AID 1159580);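 also: tested at 20 µM; growth read once vehicle control cultures reached saturation at 30 °C; 1 = growth at the plate median or of vehicle wells; lower values mean less growth of the strain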
measurement.parameters: S. cerevisiae deletion strains, growth OD, locus YMR205C, strain PFK2, active compounds read low
The campaign covered roughly 5,500 compounds. About 2,000 (36%) were called active. Another 18% or so got no clear call; they are omitted. Some of the results follow.
# normalized growth values compiled below
Simply state the number, no unit and no words.

Worked cases, answers included:
> print(dat)
                                   compound  measurement
1  CC(C(=O)O)c1ccc(N2Cc3ccccc3C2=O)cc1 (stereo not given)         0.98
2               N#C/C(=C\c1ccc(O)cc1)C(=O)O         1.04
3                         Nc1ncnc2nc[nH]c12        0.968
4  O=c1[nH]c2ccccc2n1C1CCN(CCCC(c2ccc(F)cc2)c2ccc(F)cc2)CC1        0.859
5  O=C(CCCN1CC=C(n2c(=O)[nH]c3ccccc32)CC1)c1ccc(F)cc1        0.951

Just so you know, measured normalized growth for `CCCCC(=O)N(Cc1ccc(-c2ccccc2-c2nn[nH]n2)cc1)[C@H](C(=O)O)C(C)C` came out at 0.994

Just so you know, measured normalized growth for `C[C@H]1C(=O)O[C@@H]2CCN3CC=C(COC(=O)[C@](C)(O)[C@]1(C)O)[C@H]23` came out at 0.986

Just so you know, measured normalized growth for `CCCc1nc(C(C)(C)O)c(C(=O)OCc2oc(=O)oc2C)n1Cc1ccc(-c2ccccc2-c2nn[nH]n2)cc1` came out at 0.976

Just so you know, measured normalized growth for `COc1cc(O)c(C(=O)O)c(O)c1` came out at 1.01

Just so you know, measured normalized growth for CCOc1nc2cccc(C(=O)OC(C)OC(=O)OC3CCCCC3)c2n1Cc1ccc(-c2ccccc2-c2nn[nH]n2)cc1 (stereo not given) came out at 0.99
